experiment: Plasma pharmacokinetics of LOX, cis-LOX and trans-LOX after oral LOX in mice pretreated with DEX, KTC or vehicle; type: in vivo, Male ICR mice; conditions: male, ICR, mouse, plasma, po, 20 mg/kg, mouse plasma, LOX 20 mg/kg oral, pretreated DEX 40 mg/kg i.p. 3 days, mean ± SE, n = 3; read-out: Tmax (converted)

compound: CC(C(=O)O)c1ccc(CC2CCCC2=O)cc1 (centres unmarked) [LOX, reference compound]
Tmax: 5 min
//
compound: C[C@H](C(=O)O)c1ccc(C[C@H]2CCC[C@@H]2O)cc1 [trans-LOX]
Tmax: 10.4 min

* * *

Examples of molecules with documented AUC(0-inf) follow.
Experiment: Plasma pharmacokinetics of LOX, cis-LOX and trans-LOX after oral LOX in mice pretreated with DEX, KTC or vehicle
Assay type: in vivo, Male ICR mice
Settings: male, ICR, mouse, plasma, po, 20 mg/kg, mouse plasma, LOX 20 mg/kg oral, pretreated DEX 40 mg/kg i.p. 3 days, mean ± SE, n = 3
Method: The acclimatized animals were divided into eight groups, with each group containing 3 mice: groups I and II, vehicle (corn oil); groups III and IV, DEX-treated; groups V and VI, vehicle (10% Ethanol); and groups VII and VIII, KTC-treated group. […] Then, animals were fasted for 12 hours with free access to water before starting the experiment. […]

molecule: C[C@H](C(=O)O)c1ccc(C[C@H]2CCC[C@@H]2O)cc1 [trans-LOX]
AUC(0-inf), ng·h/mL: 1430

molecule: CC(C(=O)O)c1ccc(CC2CCCC2=O)cc1 (centres unmarked) [LOX, reference compound]
AUC(0-inf), ng·h/mL: 937

* * *

Listed compounds paired with reported AUC(0-inf)
experiment: Plasma pharmacokinetics of LOX, cis-LOX and trans-LOX after oral LOX in mice pretreated with DEX, KTC or vehicle; format: in vivo, Male ICR mice; conditions: male, ICR, mouse, plasma, po, 20 mg/kg, mouse plasma, LOX 20 mg/kg oral, pretreated VH (corn oil) i.p. 3 days, mean ± SE, n = 3

compound: CC(C(=O)O)c1ccc(CC2CCCC2=O)cc1 (centres unmarked) [LOX, reference compound]
measure unit: ng·h/mL
AUC(0-inf): 1700

compound: C[C@H](C(=O)O)c1ccc(C[C@H]2CCC[C@@H]2O)cc1 [trans-LOX]
measure unit: ng·h/mL
AUC(0-inf): 2580

* * *

assay: Plasma pharmacokinetics of LOX, cis-LOX and trans-LOX after oral LOX in mice pretreated with DEX, KTC or vehicle; assay type: in vivo, Male ICR mice; conditions: male, ICR, mouse, plasma, po, 20 mg/kg, mouse plasma, LOX 20 mg/kg oral, pretreated DEX 40 mg/kg i.p. 3 days, mean ± SE, n = 3; read-out: Cmax

compound: CC(C(=O)O)c1ccc(CC2CCCC2=O)cc1 (centres unmarked) [LOX, reference compound]
Cmax [ng/mL]: 2500
//
compound: C[C@H](C(=O)O)c1ccc(C[C@H]2CCC[C@@H]2O)cc1 [trans-LOX]
Cmax [ng/mL]: 2100

* * *

experiment: Plasma pharmacokinetics of LOX, cis-LOX and trans-LOX after oral LOX in mice pretreated with DEX, KTC or vehicle; assay type: in vivo, Male ICR mice; details: male, ICR, mouse, plasma, po, 20 mg/kg, mouse plasma, LOX 20 mg/kg oral, pretreated VH (10% ethanol) i.p. single dose, mean ± SE, n = 3; read-out: AUC(0–60) (converted)

compound: CC(C(=O)O)c1ccc(CC2CCCC2=O)cc1 (centres unmarked) [LOX, reference compound]
measure unit: ng·h/mL
AUC(0-t): 912
//
compound: C[C@H](C(=O)O)c1ccc(C[C@H]2CCC[C@@H]2O)cc1 [trans-LOX]
measure unit: ng·h/mL
AUC(0-t): 1170

* * *

test: Plasma pharmacokinetics of LOX, cis-LOX and trans-LOX after oral LOX in mice pretreated with DEX, KTC or vehicle; type: in vivo, Male ICR mice; details: male, ICR, mouse, plasma, po, 20 mg/kg, mouse plasma, LOX 20 mg/kg oral, pretreated VH (10% ethanol) i.p. single dose, mean ± SE, n = 3; read-out: T1/2 (elimination half-life)

molecule: C[C@H](C(=O)O)c1ccc(C[C@H]2CCC[C@@H]2O)cc1 [trans-LOX]
half-life (min): 26
//
molecule: CC(C(=O)O)c1ccc(CC2CCCC2=O)cc1 (centres unmarked) [LOX, reference compound]
half-life (min): 14.6
